Cited source for all entries: patent US20150359763A1

# Test system: human "swim-up" sperm
# ASSAY TEXT: EC50 and EC100 for immobilizing human sperm within 20 seconds of contact, CASA
# Format: cell-based
# CONDITION INFO: Homo sapiens, Sperm, pH 5, human sperm, pH 5.0; read-out: EC50 (50% of motile sperm immobilized within 20 seconds of contact)
# Procedure: To determine at what concentrations 3BP can block the motility of 50% and 100% of the total motile sperm, mouse epididymal sperm were collected into PBS (pH 7.5) and then transferred to pre-warmed (37° C.) HTF medium containing serial dilutions of 3BP (pH 7.5) at concentrations ranging from 10 to 130 mM with a 10 mM increment. Motility was measured using CASA upon 20 seconds of contact with 3BP. […] Similarly, the EC50 and EC100 of 3BP in immobilizing human sperm were determined. […]

{"SMILES RECORD": "O=C(O)C(=O)CBr", "EC50, mM": 14}
